The measured values listed here are drawn from PubChem BioAssay (NCI).

# Test system: MDA-MB-468 breast
# protocol-description: NCI-60 one-dose screen, 48 h (100 = growth as untreated, 0 = no growth, -100 = all killed)
# condition: 10 µM unless noted
# Description: Growth inhibition of the MDA-MB-468 human Breast tumor cell line is measured as a screen for anti-cancer activity. Cells are grown in 96 well plates and exposed to the test compound for 48 hours. Compounds are tested at a single concentration, which is 10^-5 M for most compounds. The reported endpoint is percent growth (GI% or GIPRCNT), where numbers from 0 - 100% represent growth inhibition, and numbers from -100% - 0 represent cell death. […]
This is part of a sample that, as a whole, favours compounds with a hit. Of some 83,000 tested, about 20% had one in any assay. Activity calls are given as the source filed them. Rule for the calls: active = growth percent below 10; inactive = the rest.
growth by entry:

See these solved cases before continuing.
[
  {
    "molecule": "CC(=O)c1c(C)nc(SCC(=O)Nc2cccc(O)c2)n1-c1ccc(Cl)cc1",
    "growth": "79.7% (inactive)"
  },
  {
    "molecule": "C[C@@H]1CN(Cc2ccc(/C=C/c3n[nH]c4ccc5nc(-c6cn[nH]c6C(F)(F)F)c6c(c5c34)CCCC6)cc2)C[C@H](C)O1",
    "growth": "76.9% (inactive)"
  }
]

Value of measured growth for the entry COc1ccc(S(=O)(=O)NC2c3ccccc3CC2O)cc1OC (stereo not given) : 111% (inactive)

Value of measured growth for the entry C#Cc1cccc(NC(=O)c2ccccc2NC(=O)CCl)c1 : 76.1% [8.25 µM] (inactive)

Value of measured growth for the entry COc1ccc(-c2nc3sccn3c2/C=C/C(=O)c2cc(OC)c(OC)c(OC)c2)cc1 : 53.6% (inactive)
